# Test system: MDA-MB-468 human breast cancer cells
# protocol details: Cell viability assay (trypan blue dye exclusion), viable cells counted at day 6
# Type: cell-based
# recorded conditions: 10 micromoles, about 4×10^4 cells seeded, untreated 6.1 ± 0.4
assay metric: Treated (cell number × 10^5)

Cl.Cn1cc(C2=C(c3c4n(c5ccccc35)CCC(CN)C4)C(=O)NC2=O)c2ccccc21 (stereo not shown) [Ro31-8425]: 0.1 ± 0.05 × 10^5
Cn1cc(C2=C(c3cn(CCCSC(=N)N)c4ccccc34)C(=O)NC2=O)c2ccccc21 [Ro31-8220]: 0.2 ± 0.05 × 10^5
CN(C)CCCn1cc(C2=C(c3c[nH]c4ccccc34)C(=O)NC2=O)c2ccccc21 [Gö6850]: 4.6 ± 0.2 × 10^5

Give MDA-MB-468 human breast cancer cells Treated (cell number × 10^5) for the following compound: Cn1cc(C2=C(c3cn(CCCN)c4ccccc34)C(=O)NC2=O)c2ccccc21 [Ro31-7549]
0.2 ± 0.05 × 10^5

###

# Test system: HT29 human colon cancer cells
# protocol details: Cell viability assay (trypan blue dye exclusion), viable cells counted at day 6
# Format: cell-based
# recorded conditions: 10 micromoles, about 4×10^4 cells seeded, untreated 3.8 ± 0.4
assay metric: Treated (cell number × 10^5)

# annotated cases, reported Treated (cell number × 10^5) shown
CN(C)CCCn1cc(C2=C(c3c[nH]c4ccccc34)C(=O)NC2=O)c2ccccc21: 2.4 × 10^5
Cl.Cn1cc(C2=C(c3c4n(c5ccccc35)CCC(CN)C4)C(=O)NC2=O)c2ccccc21 (stereo not drawn): 0.6 × 10^5
CN(C)CC1CCn2c(c(C3=C(c4cn(C)c5ccccc45)C(=O)NC3=O)c3ccccc32)C1.Cl (stereo not drawn): 3.0 × 10^5

Give HT29 human colon cancer cells Treated (cell number × 10^5) for the following compound: `Cn1cc(C2=C(c3cn(CCCN)c4ccccc34)C(=O)NC2=O)c2ccccc21`
1.7 × 10^5

Give HT29 human colon cancer cells Treated (cell number × 10^5) for the following compound: `N#CCCn1c2ccccc2c2c3c(c4c5ccccc5[nH]c4c21)C(=O)NC3`
3.2 × 10^5

Give HT29 human colon cancer cells Treated (cell number × 10^5) for the following compound: `Cn1cc(C2=C(c3cn(CCCSC(=N)N)c4ccccc34)C(=O)NC2=O)c2ccccc21`
0.6 × 10^5

###

# System: HT29 human colon cancer cells
# protocol details: Cell viability assay (trypan blue dye exclusion), viable cells counted at day 6
# Type: cell-based
# recorded conditions: 10 micromoles, growth vs untreated
assay metric: % inhibiton (%)
Return type: number; implicit unit %.

# annotated cases, reported % inhibiton shown
N#CCCn1c2ccccc2c2c3c(c4c5ccccc5[nH]c4c21)C(=O)NC3 [NGIC-I]: 15
Cn1cc(C2=C(c3cn(CCCSC(=N)N)c4ccccc34)C(=O)NC2=O)c2ccccc21 [Ro31-8220]: 85
Cn1cc(C2=C(c3cn(CCCN)c4ccccc34)C(=O)NC2=O)c2ccccc21 [Ro31-7549]: 63
CN(C)CCCn1cc(C2=C(c3c[nH]c4ccccc34)C(=O)NC2=O)c2ccccc21 [Gö6850]: 22
CN(C)CC1CCn2c(c(C3=C(c4cn(C)c5ccccc45)C(=O)NC3=O)c3ccccc32)C1.Cl (stereo not drawn) [Ro31-0432]: 19

# ---- query compound ----
Identify measured % inhibiton corresponding to Cl.Cn1cc(C2=C(c3c4n(c5ccccc35)CCC(CN)C4)C(=O)NC2=O)c2ccccc21 (stereo not drawn) [Ro31-8425]
85

###

# System: MDA-MB-468 human breast cancer cells
# protocol details: Cell viability assay (trypan blue dye exclusion), viable cells counted at day 6
# Type: cell-based
# recorded conditions: 10 micromoles, growth vs untreated
assay metric: % inhibiton (%)
Return type: number; implicit unit %.

# annotated cases, reported % inhibiton shown
CN(C)CCCn1cc(C2=C(c3c[nH]c4ccccc34)C(=O)NC2=O)c2ccccc21 [Gö6850]: 25
CN(C)CC1CCn2c(c(C3=C(c4cn(C)c5ccccc45)C(=O)NC3=O)c3ccccc32)C1.Cl (stereo not drawn) [Ro31-0432]: 30

# ---- query molecule ----
Identify measured % inhibiton corresponding to N#CCCn1c2ccccc2c2c3c(c4c5ccccc5[nH]c4c21)C(=O)NC3 [NGIC-I]
78

###

Recorded Treated (cell number × 10^5) by entry
# System: Hela human cervical cancer cells
# protocol details: Cell viability assay (trypan blue dye exclusion), viable cells counted at day 6
# Format: cell-based
# recorded conditions: 10 micromoles, about 4×10^4 cells seeded, untreated 3.4 ± 0.4
# Procedure: The following cancer cells were maintained in Dulbecco's modified Eagle medium (DMEM) supplemented with 10 percent bovine calf serum. Cells were seeded for 24 hours. Then they were treated with PKC inhibitors or left untreated. The cells were then collected periodically and evaluated using trypan blue dye exclusion to assess viability using the method described by C Y Chen, et al., in J. Biol. Chem. 273:16700-16709. […]

Cl.Cn1cc(C2=C(c3c4n(c5ccccc35)CCC(CN)C4)C(=O)NC2=O)c2ccccc21 (stereo not drawn) [Ro31-8425]: 0 × 10^5
Cn1cc(C2=C(c3cn(CCCSC(=N)N)c4ccccc34)C(=O)NC2=O)c2ccccc21 [Ro31-8220]: 6.0 × 10^5
CN(C)CCCn1cc(C2=C(c3c[nH]c4ccccc34)C(=O)NC2=O)c2ccccc21 [Gö6850]: 0.3 × 10^5

Identify measured Treated (cell number × 10^5) corresponding to CN(C)CC1CCn2c(c(C3=C(c4cn(C)c5ccccc45)C(=O)NC3=O)c3ccccc32)C1.Cl (stereo not drawn) [Ro31-0432]
1.3 × 10^5

Identify measured Treated (cell number × 10^5) corresponding to N#CCCn1c2ccccc2c2c3c(c4c5ccccc5[nH]c4c21)C(=O)NC3 [NGIC-I]
0.3 × 10^5

Identify measured Treated (cell number × 10^5) corresponding to Cn1cc(C2=C(c3cn(CCCN)c4ccccc34)C(=O)NC2=O)c2ccccc21 [Ro31-7549]
6 × 10^5
